Ref: patent US7659404B2

Kindly state fold resistance (FR), strain Q for each of the entries shown.
- System: clinically isolated HIV strain Q
- Measurement description: Antiviral spectrum, cellular assay (fold resistance), strain Q
- Assay type: cell-based
- Measurement parameters: FR=EC50(mutant strain)/EC50(HIV-1 strain LAI)
Answer with a number only.

// CC(C)CN(CC(O)C(Cc1ccccc1)NC(=O)OC1COC2OCCC12)S(=O)(=O)c1ccc2nc(NC(=O)CN3CCCC3)sc2c1 (stereo not drawn) [Compound 12] : fold resistance (FR), strain Q value = 0.4

// CC(C)CN(C[C@@H](O)[C@H](Cc1ccccc1)NC(=O)O[C@H]1CCOC1)S(=O)(=O)c1ccc2nc(NC(=O)CN(C)C)sc2c1 [Compound 34] : fold resistance (FR), strain Q value = 4.0

// CC(C)CN(CC(O)C(Cc1ccccc1)NC(=O)OC1COC2OCCC12)S(=O)(=O)c1ccc2nc(NC(=O)CN3CCOCC3)sc2c1 (mixture of isomers) [Compound 10] : fold resistance (FR), strain Q value = 0.3

// CC(C)CN(C[C@@H](O)[C@H](Cc1ccccc1)NC(=O)O[C@H]1CCOC1)S(=O)(=O)c1ccc2nc(NC(=O)CN3CCNCC3)sc2c1 [Compound 35] : fold resistance (FR), strain Q value = 0.9

// CC(C)CN(C[C@@H](O)[C@H](Cc1ccccc1)NC(=O)O[C@H]1CO[C@H]2OCC[C@H]21)S(=O)(=O)c1ccc2nc(NC(=O)CN3CCCC3)sc2c1.O=C(O)/C=C/C(=O)O [Compound 13] : fold resistance (FR), strain Q value = 0.4

// CC(=O)Nc1nc2ccc(S(=O)(=O)N(CC(C)C)CC(O)C(Cc3ccccc3)NC(=O)OC3COC4OCCC34)cc2s1 (mixture of isomers) [Compound 1] : fold resistance (FR), strain Q value = 0.8

// Cc1cc(N)ccc1C(=O)NC(Cc1ccccc1)C(O)CN(CC(C)C)S(=O)(=O)c1ccc2nc(NC(=O)CN(C)C)sc2c1 (stereo not drawn) [Compound 43] : fold resistance (FR), strain Q value = 1.1

// CC(C)CN(C[C@@H](O)[C@H](Cc1ccccc1)NC(=O)O[C@H]1CO[C@H]2OCC[C@H]21)S(=O)(=O)c1ccc2nc(NC(=O)CN3CCCC3)sc2c1.Cl [Compound 14] : fold resistance (FR), strain Q value = 0.3

// Cc1cccc(C)c1OCC(=O)N[C@@H](Cc1ccccc1)[C@H](O)CN(CC(C)C)S(=O)(=O)c1ccc2nc(NC(=O)CN3CCCC3)sc2c1 [Compound 37] : fold resistance (FR), strain Q value = 3.8

// CC(C)CN(C[C@@H](O)[C@H](Cc1ccccc1)NC(=O)O[C@H]1CO[C@H]2OCC[C@H]21)S(=O)(=O)c1ccc2nc(NCCN(C)C)sc2c1 [Compound 16] : fold resistance (FR), strain Q value = 0.2

// CC(=O)N(C)c1nc2ccc(S(=O)(=O)N(CC(C)C)CC(O)C(Cc3ccccc3)NC(=O)OC3COC4OCCC34)cc2s1 (mixture of isomers) [Compound 9] : fold resistance (FR), strain Q value = 1.8

// CC(C)CN(CC(O)C(Cc1ccccc1)NC(=O)OC1COC2OCCC12)S(=O)(=O)c1ccc2nc(NC(=O)CN3CCCC3)sc2c1 (mixture of isomers) [Compound 7] : fold resistance (FR), strain Q value = 0.4
